- target: Norepinephrine transporter (Rattus norvegicus)
- Sequence (Q9WTR4 whole entry): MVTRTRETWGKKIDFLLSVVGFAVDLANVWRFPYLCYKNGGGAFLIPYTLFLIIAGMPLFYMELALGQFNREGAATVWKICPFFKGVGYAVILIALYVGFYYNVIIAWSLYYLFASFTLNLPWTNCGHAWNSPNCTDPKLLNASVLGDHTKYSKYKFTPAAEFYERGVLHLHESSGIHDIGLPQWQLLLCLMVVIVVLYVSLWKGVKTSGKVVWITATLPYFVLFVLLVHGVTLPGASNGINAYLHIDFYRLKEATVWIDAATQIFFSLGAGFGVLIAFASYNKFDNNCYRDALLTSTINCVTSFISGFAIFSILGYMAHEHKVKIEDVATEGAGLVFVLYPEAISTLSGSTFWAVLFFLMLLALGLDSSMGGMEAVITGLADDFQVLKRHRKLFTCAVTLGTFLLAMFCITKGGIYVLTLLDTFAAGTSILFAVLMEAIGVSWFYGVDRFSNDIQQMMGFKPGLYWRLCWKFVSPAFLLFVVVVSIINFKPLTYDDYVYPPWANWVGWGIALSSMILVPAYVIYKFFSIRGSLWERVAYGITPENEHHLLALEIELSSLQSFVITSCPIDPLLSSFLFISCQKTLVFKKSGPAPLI
Measured pKi by item
Lab note: report pKi as minus log10 of the concentration in molar units, number only.

COC(=O)C1C2CCC(CC1c1ccc(-c3ccco3)cc1)N2 (stereo unspecified) :: 7.90
COC(=O)C1C(c2ccc(-c3cnccn3)cc2)CC2CCC1N2C (stereo unspecified) :: 6.67
COC(=O)C1C(c2ccc(-c3cccc(F)c3)cc2)CC2CCC1N2C (stereo unspecified) :: 6.60

(Q) Looking for the measured pKi of COC(=O)C1C(c2ccc(-c3ccco3)cc2)CC2CCC1N2C (stereo unspecified) , can you help?
(A) 5.85

(Q) Looking for the measured pKi of COC(=O)C1C(c2ccc(-c3cc(F)cc(F)c3)cc2)CC2CCC1N2C (stereo unspecified) , can you help?
(A) 6.96

(Q) Looking for the measured pKi of COC(=O)C1C(c2ccc(-c3cccnc3)cc2)CC2CCC1N2C (stereo unspecified) , can you help?
(A) 5.85

(Q) Looking for the measured pKi of COC(=O)C1C(c2ccc(-c3ccoc3)cc2)CC2CCC1N2C (stereo unspecified) , can you help?
(A) 6.90

(Q) Looking for the measured pKi of COC(=O)C1C2CCC(CC1c1ccc(-c3nccs3)cc1)N2 (stereo unspecified) , can you help?
(A) 6.67

###

Measured Ratio Ki by item
- test.details: Selectivity for SERT over DAT
- Assay type: protein assay
- applied.conditions: Rattus norvegicus

Illustrative cases are given below, each with its answer.
COC(=O)C1C2CCC(CC1c1ccc(-c3nccs3)cc1)N2 (stereo unspecified) :: 13
COC(=O)C1C(c2ccc(-c3cncc(OC)c3)cc2)CC2CCC1N2C (stereo unspecified) :: 150
COC(=O)C1C(c2ccc(-c3ccoc3)cc2)CC2CCC1N2C (stereo unspecified) :: 40

(Q) Looking for the measured Ratio Ki of COC(=O)C1C(c2ccc(-c3ccco3)cc2)CC2CCC1N2C (stereo unspecified) , can you help?
(A) 6

(Q) Looking for the measured Ratio Ki of COC(=O)C1C(c2ccc(-c3nccs3)cc2)CC2CCC1N2C (stereo unspecified) , can you help?
(A) 311

(Q) Looking for the measured Ratio Ki of COC(=O)C1C(c2ccc(-c3cnc4ccccc4c3)cc2)CC2CCC1N2C (stereo unspecified) , can you help?
(A) 3

###

Measured pKi (Sodium-dependent dopamine transporter (Rattus norvegicus))
Lab note: report pKi as minus log10 of the concentration in molar units, number only.

Illustrative cases are given below, each with its answer.
COC(=O)C1C2CCC(CC1c1ccc(-c3nccs3)cc1)N2 (configuration not stated) :: 7.16
COC(=O)C1C(c2ccc(-c3ccoc3)cc2)CC2CCC1N2C (configuration not stated) :: 7.85

(Q) Looking for the measured pKi of COC(=O)C1C(c2ccc(-c3cccc(N(C)C)c3)cc2)CC2CCC1N2C (configuration not stated) , can you help?
(A) 6.26

(Q) Looking for the measured pKi of COC(=O)C1C(c2ccc(-c3nccs3)cc2)CC2CCC1N2C (configuration not stated) , can you help?
(A) 6.28

(Q) Looking for the measured pKi of COC(=O)C1C2CCC(CC1c1ccc(-c3ccco3)cc1)N2 (configuration not stated) , can you help?
(A) 8.42

(Q) Looking for the measured pKi of COC(=O)C1C(c2ccc(-c3cc(F)cc(F)c3)cc2)CC2CCC1N2C (configuration not stated) , can you help?
(A) 7.50

(Q) Looking for the measured pKi of COC(=O)C1C(c2ccc(-c3cccc(F)c3)cc2)CC2CCC1N2C (configuration not stated) , can you help?
(A) 7.60

(Q) Looking for the measured pKi of COC(=O)C1C(c2ccc(-c3cnccn3)cc2)CC2CCC1N2C (configuration not stated) , can you help?
(A) 6.92

(Q) Looking for the measured pKi of COC(=O)C1C(c2ccc(-c3cccnc3)cc2)CC2CCC1N2C (configuration not stated) , can you help?
(A) 7.58

(Q) Looking for the measured pKi of COC(=O)C1C2CCC(CC1c1ccc(-c3cncc(OC)c3)cc1)N2 (configuration not stated) , can you help?
(A) 6.48

(Q) Looking for the measured pKi of COC(=O)C1C(c2ccc(-c3cncc(OC)c3)cc2)CC2CCC1N2C (configuration not stated) , can you help?
(A) 6.23

(Q) Looking for the measured pKi of COC(=O)C1C(c2ccc(-c3ccncc3)cc2)CC2CCC1N2C (configuration not stated) , can you help?
(A) 5.81

FYI, the data here is from ChEMBL document CHEMBL1148559.
